# Test system: CCRF-CEM leukemia
# Assay notes: NCI tumour cell line growth inhibition, 48 h
Readout kind: TGI

Completed entries (count: 2):
C/C=C/COC(=O)CO[N+](=O)[O-]; > 100 µM
Cc1ccc(-c2nc([P+](c3ccccc3)(c3ccccc3)c3ccccc3)c(Nc3ccccc3)o2)cc1; 2.28 µM

# return recorded TGI for entry N#CCN(CC#N)C1CC=CCC1N(CC#N)CC#N (stereo unspecified)
> 100 µM

# return recorded TGI for entry CC(C)(C)OC(=O)Cn1ncn(NC(=O)Cc2ccccc2)c1=O
> 10 µM

# return recorded TGI for entry O=C(N/N=C/c1cc(Cl)cc(Cl)c1[O-])c1ccccc1.O=C(N/N=C/c1cc(Cl)cc(Cl)c1[O-])c1ccccc1.[Co+2]
19.6 µM

# return recorded TGI for entry COc1ccccc1NCc1cccc2c(=O)c3ccc(Cl)cc3oc12
> 100 µM

# return recorded TGI for entry OC12c3ccccc3C3CCC4(OCCO4)C3C1c1ccccc12 (stereo unspecified)
> 100 µM

# return recorded TGI for entry Cc1ccc(O)c(C2=CC(c3cccc(Br)c3)SC(N)=N2)c1 (stereo unspecified)
81.7 µM

# return recorded TGI for entry COc1ccc(N2C(=O)C3c4[nH]c5ccc(F)cc5c4C4CCC(C(C)(C)C)CC4C3C2=O)cc1 (stereo unspecified)
> 10 µM

# return recorded TGI for entry c1ccc(P(=C2c3ccccc3-c3ccccc32)(c2ccccc2)c2ccccc2)cc1
8.34 µM

# return recorded TGI for entry Cc1c(C(N)=O)sc2c1c(=O)n(Cc1ccccc1)c1nnc(-c3ccc(Br)cc3)n21
22.8 µM

# return recorded TGI for entry COc1ccc2c3c1OC1C34CCN(C)C(C2)C4=CC(I)C1(OC)OC (stereo unspecified)
5.87 µM

# return recorded TGI for entry COc1cc(NC=C2C(=O)OC(C)(C)OC2=O)c(OC)c(C)c1OC
> 100 µM

# return recorded TGI for entry CN1C(=O)CC2CCC(=O)N2c2cccnc21 (stereo unspecified)
> 100 µM

# return recorded TGI for entry Cc1cc(=O)[nH]c(CNC(=O)c2cccc(C(=O)NCc3cc(=O)[nH]c(C)n3)c2)n1
> 100 µM

###

# Test system: LXFL 529 NSCLC
# Assay notes: NCI tumour cell line growth inhibition, 48 h
Readout kind: TGI

Cn1c(=O)c2[nH]cnc2n(CC(N)=O)c1=O; > 100 µM
COC(=O)/C=c1\s/c(=C\C(=O)OC)c2ccccc12; > 100 µM
CN(C)CCNC(=O)c1cccc2ccc(-c3ccc(-c4ccccc4)cc3)nc12; 3.39 µM
C#CC1(O)CCC2[C@@H]3CCc4cc(Oc5nc(F)nc(-c6c7ccccc7cn6C)n5)ccc4C3CC[C@@]21C (stereo partly drawn); > 100 µM
CC(=O)OC1CC[C@@]2(C)C(CC[C@]3(C)C2CC=C2[C@@H]4C(C)[C@H](C)CCC4(C)CCC23C)[C@@]1(C)C(=O)O (stereo partly drawn); 39.4 µM

# return recorded TGI for entry O=C1c2ccccc2C(=O)c2sc(Nc3ccccc3Cl)nc21
5.56 µM

# return recorded TGI for entry O=C1C2C3C=C4c5ccccc5N(c5ccccc5)C4(C2C(=O)N1c1ccc(Br)cc1)[C@H]1C(=O)N(c2ccc(Br)cc2)C(=O)[C@@H]31 (stereo partly drawn)
> 100 µM

# return recorded TGI for entry COc1cc2c(cc1C1=NC(C)(C)CO1)OCO2
> 100 µM

# return recorded TGI for entry C=CCOC(=O)C1CCC(=O)N1C(=O)C(Cl)Cl (stereo not drawn)
> 100 µM

# return recorded TGI for entry COC1OC(C)C2OC(C)(C)OC2C1OC(C)=O (stereo not drawn)
> 100 µM

# return recorded TGI for entry CC[N+](C)(CC)CC(C)(C)C(=O)/C=C/c1ccc(/C=C/C(=O)C(C)(C)C[N+](C)(CC)CC)cc1
> 100 µM

# return recorded TGI for entry CC(CN(C)C)C(=O)c1ccccc1 (stereo not drawn)
39.8 µM

# return recorded TGI for entry CCOC(=O)C(CNc1ccc(O)cc1)NC(=O)c1ccccc1 (stereo not drawn)
> 100 µM

###

Listed compounds paired with reported log10 of TGI
# Test system: UO-31 renal
# Assay notes: NCI tumour cell line growth inhibition, 48 h
Log scale reminder: TGI in µM, then log10 taken.

Completed entries (count: 5):
Cc1ccc(NCCN(C)C)c2c(=O)c3ccccc3sc12; 0.45
CO[C@@H]1C[C@H](OC(N)=O)[C@@H]2C=C[C@@H]3/C=C(C)/C=C/[C@@H](C)[C@H](/C(C)=C/[C@@H](C)NC(C)=O)OC(=O)/C=C/C=C(C)\C=C\[C@]3(C)[C@@H]2C1; -0.95
C=C1C(=O)O[C@H]2[C@H]1CC/C(COC(=O)NCCc1c[nH]c3ccc(Cl)cc13)=C\CC[C@@]1(C)O[C@@H]21; 0.41
O=C1c2ccccc2C(=O)c2sc(Nc3ccccc3Cl)nc21; 1.39
COc1ccc2[nH]c3c(C)cc([N+](=O)[O-])c(C)c3c2c1; 1.85

Would you kindly look at the next entry?
# return recorded log10 of TGI for entry c1ccc(P(=C2c3ccccc3-c3ccccc32)(c2ccccc2)c2ccccc2)cc1
1.85

###

# Tested on: MCF7 breast
# Assay notes: NCI tumour cell line growth inhibition, 48 h; in the data active means GI50 below about 0.43 µM; inactive means the rest
Just give me one of these, please: t (active), f (inactive)

COc1ccc(Nc2nc3cc(N)cc(N)c3nc2-c2ccccc2)cc1OC; f
COc1ccc(Cn2cc3c(c2-c2ccccc2)CCc2cnoc2-3)cc1N; t
CCOC(=O)/C=C/C(=O)[C@H](CC(C)C)NC(=O)[C@H](Cc1ccccc1)NC(=O)OCc1ccccc1; f
CCOC(=O)c1ccc2c(c1)[n+](=O)c(C(C)=O)c(C(F)(F)F)n2[O-]; f
Nc1nc(=O)n([C@@H]2CS[C@H](CO)O2)cc1F; f

Short answer needed: outcome of this test for CC1=C[C@H]2C[C@H](C)[C@H]3CC[C@H](C)[C@]4(C1)C(=O)C(O)=C(C)C(=O)[C@@]324 ?
f

Short answer needed: outcome of this test for O=C(c1ccccc1)n1c(-c2ccccc2)cs/c1=N\S(=O)(=O)c1ccc(N2N=C3c4ccccc4CC3C2c2cccs2)cc1 (centres undefined) ?
f

Short answer needed: outcome of this test for CCOC(=O)c1cnn2c3ccccc3n(S(=O)(=O)c3ccc(OC)cc3)c12 ?
t

Short answer needed: outcome of this test for O=c1oc2ccc(-c3ccc(F)cc3F)cc2c(=O)n1-c1ccc(Cl)c(C(F)(F)F)c1 ?
f

###

# System: SK-MEL-5 melanoma
# Assay notes: NCI tumour cell line growth inhibition, 48 h
Listed compounds paired with reported TGI
Numeric only. Scale: µM

O=C1c2ccccc2C(=O)c2c(NCC3CO3)ccc(NCC3CO3)c21 (stereo not given); 6.44
C=C1C(=O)O[C@H]2[C@H]1CC/C(COC(=O)NCCc1c[nH]c3ccc(Cl)cc13)=C\CC[C@@]1(C)O[C@@H]21; 3.33
COc1ccc2c(c1)c(=O)c1c(NCCN(C)C)ccc3nnn2c31; 14.1

Would you kindly look at the next entry?
Specify TGI for COc1ccc(Nc2nc3cc(N)cc(N)c3nc2-c2ccccc2)cc1OC , system SK-MEL-5 melanoma.
25.5

###

# System: MDA-MB-231 breast
# Assay notes: NCI tumour cell line growth inhibition, 48 h
Listed molecules paired with reported TGI
Numeric only. Scale: µM

Completed entries (count: 3):
O=C(/C=C/C12c3ccccc3C(c3ccccc31)C1C(=O)NC(=O)C12)c1ccc(Cl)cc1 (centres undefined); 4.3
Cc1ccc(-c2nc(-c3cn(C)c4ncccc34)cs2)cc1; 21.5
Cc1cc(Cl)ccc1Nc1nc(C(F)(F)F)ccc1C(=O)N/N=C/c1ccccc1Cl; 5.53

Would you kindly look at the next entry?
# return recorded TGI for entry CC(C)(C)OC(=O)CN1CCN(CC(=O)N2CCN(C(=O)OCc3ccccc3)CC2)CCN(CC(=O)OC(C)(C)C)CCN(CC(=O)N2CCN(C(=O)OCc3ccccc3)CC2)CC1
5.01

###

# Tested on: CCRF-CEM leukemia
# Assay notes: NCI tumour cell line growth inhibition, 48 h; in the data active = GI50 below about 0.43 µM; inactive = the rest
Just give me one of these, please: active, inactive

A selection of reference data follows.
Cc1cnc(Nc2ccc(N3CCN(C)CC3)cc2)nc1Nc1ccc(Cl)c(NS(=O)(=O)C(C)(C)C)c1; active
O=c1oc2ccc(-c3ccc(F)cc3F)cc2c(=O)n1-c1ccc(Cl)c(C(F)(F)F)c1; inactive
O=C(Nc1cc(Oc2cc(F)c(NC(=O)C3(C(=O)Nc4ccc(F)cc4)CC3)cc2F)ccn1)C1CC1; inactive
CC1=C(C)C2(O)C(=C(C)C1=O)/C(=C(/O)c1ccccc1)c1nc3ccccc3n12 (stereo not given); inactive

Proceed to the following item.
Short answer needed: outcome of this test for COc1ccccc1NS(=O)(=O)c1ccc2oc(SC(C)C)nc2c1 ?
inactive

###

# System: HOP-92 NSCLC
# Assay notes: NCI tumour cell line growth inhibition, 48 h
Readout kind: TGI (µM)
Numeric only. Scale: µM

CCN(CC)CCCNc1[nH]ncc2c(C)c3nc4ccc(OC)cc4c3cc12; 3.14

# return recorded TGI for entry N#Cc1c(-c2ccc(Cl)cc2)c2c(N=Nc3c(O)ccc4ccccc34)[nH]nc2[nH]c1=O
0.865

# return recorded TGI for entry COc1ccc(C(CC(=O)c2ccccc2)C(C(=O)c2ccccc2)C(c2ccc(OC)cc2)C2C(=O)NC(=S)NC2=O)cc1 (centres undefined)
43.1
